# Test system: T1, Full length recombinant HBcAg (rHBcAg) encompassing residues 1-183 (hepatitis B virus, UniProt P03146 1-183)
# T1 construct: range 1-183; also called hepatitis B virus core antigen
# T1 sequence (P03146 whole entry, the tested form may be a part): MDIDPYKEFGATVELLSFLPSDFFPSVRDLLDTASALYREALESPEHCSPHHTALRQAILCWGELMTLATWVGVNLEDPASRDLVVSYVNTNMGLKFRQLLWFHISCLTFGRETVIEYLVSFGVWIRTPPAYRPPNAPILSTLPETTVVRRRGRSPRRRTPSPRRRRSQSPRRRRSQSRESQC
# Method: competition EIA, HBcAg coated 1 ug/ml, peptide 200 ug/ml before mAb 4-2 (competitor); OD of bound mAb
Each record is given fulfilled if its reported OD at 490 nm is strictly below 0.2 OD. Records at or above 0.2 OD are given not fulfilled.

{"Binder": "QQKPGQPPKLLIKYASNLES [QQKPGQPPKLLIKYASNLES (SEQ. ID. No. 19)]", "Category": "not fulfilled"}
{"Binder": "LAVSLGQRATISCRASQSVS [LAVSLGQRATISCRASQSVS (SEQ. ID. No. 16)]", "Category": "not fulfilled"}
{"Binder": "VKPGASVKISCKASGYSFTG (also called Peptide # 25) [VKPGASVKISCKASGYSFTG (SEQ. ID. No. 28)]", "Category": "fulfilled"}
{"Binder": "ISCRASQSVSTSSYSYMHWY [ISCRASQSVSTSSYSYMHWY (SEQ. ID. No. 17)]", "Category": "not fulfilled"}
{"Binder": "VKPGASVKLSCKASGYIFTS (also called Peptide # 2; Pept. #2) [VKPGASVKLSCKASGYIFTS (SEQ. ID. No. 5)]", "Category": "fulfilled"}
